TESTED_SYSTEM: T1, MED25 VP16-binding domain (VBD) (human, UniProt Q71SY5 390-553)
T1 sequence (looked up): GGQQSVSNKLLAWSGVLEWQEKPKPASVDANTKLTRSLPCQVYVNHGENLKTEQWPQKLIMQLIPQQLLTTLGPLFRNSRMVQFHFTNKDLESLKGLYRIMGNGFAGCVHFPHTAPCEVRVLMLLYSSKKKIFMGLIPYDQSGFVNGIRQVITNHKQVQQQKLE
PROTOCOL_TEXT: ITC
pKd: −log10 of the molar value.
ASSAY_ENDPOINT: pKd

For the binder VP16 TAD (full-length transactivation domain, amino acids 411-490) (domain or fragment, Herpes simplex virus 1, UniProt P06492 411-490, looked up) STAPPTDVSLGDELHLDGEDVAMAHADALDDFDLDMLGDGDSPGPGFTPHDSAPYGALDMADFEFEQMFTDALGIDEYGG , what pKd is on record?
~7.30
